target: truncated PI3Kα (p110α/iSH2 p85α) (Homo sapiens (Human), UniProt P42336); experiment: PI3KA_Act fluorescence polarization kinase assay (Ki); format: biochemical; conditions: 1 mM ATP
Sequence (P42336 whole entry, the tested form may be a part): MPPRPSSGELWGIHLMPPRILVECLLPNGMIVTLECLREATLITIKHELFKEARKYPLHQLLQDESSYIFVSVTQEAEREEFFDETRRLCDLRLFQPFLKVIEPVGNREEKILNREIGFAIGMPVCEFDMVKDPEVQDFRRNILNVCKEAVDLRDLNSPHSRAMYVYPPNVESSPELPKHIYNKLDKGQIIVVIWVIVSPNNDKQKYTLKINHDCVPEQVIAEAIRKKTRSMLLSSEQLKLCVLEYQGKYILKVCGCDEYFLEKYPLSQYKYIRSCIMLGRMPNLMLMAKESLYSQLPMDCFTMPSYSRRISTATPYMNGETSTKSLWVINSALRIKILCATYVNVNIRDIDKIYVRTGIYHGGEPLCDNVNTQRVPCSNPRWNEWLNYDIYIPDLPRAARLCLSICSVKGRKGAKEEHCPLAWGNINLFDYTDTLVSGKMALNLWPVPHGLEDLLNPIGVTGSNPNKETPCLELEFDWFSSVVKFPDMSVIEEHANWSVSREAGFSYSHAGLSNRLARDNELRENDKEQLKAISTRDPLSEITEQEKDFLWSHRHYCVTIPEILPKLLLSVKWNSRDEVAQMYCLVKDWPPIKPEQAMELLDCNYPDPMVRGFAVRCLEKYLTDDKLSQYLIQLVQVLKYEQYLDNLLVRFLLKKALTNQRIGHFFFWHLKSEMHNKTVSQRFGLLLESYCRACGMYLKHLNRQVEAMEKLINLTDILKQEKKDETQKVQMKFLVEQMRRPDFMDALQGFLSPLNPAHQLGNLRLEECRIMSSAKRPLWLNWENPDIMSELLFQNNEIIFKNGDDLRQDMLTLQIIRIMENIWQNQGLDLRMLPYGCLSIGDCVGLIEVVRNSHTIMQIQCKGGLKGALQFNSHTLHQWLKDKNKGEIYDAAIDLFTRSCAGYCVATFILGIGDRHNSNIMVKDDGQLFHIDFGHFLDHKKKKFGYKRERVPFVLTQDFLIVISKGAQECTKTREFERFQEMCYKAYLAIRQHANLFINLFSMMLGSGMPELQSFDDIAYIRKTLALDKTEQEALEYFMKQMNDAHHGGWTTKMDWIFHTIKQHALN
Just a reminder that ties go to rule not met: only PI3KA_Act Ki strictly below 0.2 nM counts as rule met.

1. C[C@H]1COCCN1c1nc(-c2cnc(N)nc2)c2c(n1)N(C1CN(S(=O)(=O)N3CCC3)C1)CC2 [Example 464] = rule met
2. C[C@H]1COCCN1c1nc(-c2cnc(N)nc2)c2c(n1)N([C@@]1(C)CCN(C(=O)C(C)(C)CN)C1)CC2.Cl [Example 484] = rule met
3. C[C@]1(N2CCc3c(-c4cnc(N)nc4)nc(N4CCOCC4)nc32)CCN(C(=O)[C@@H]2C[C@H]2F)C1 [Example 333] = rule met
4. CNS(=O)(=O)N1CC(N2CCc3c(-c4cnc(N)nc4)nc(N4CCOCC4)nc32)C1 [Example 147] = rule met
5. CC[C@@]1(N2CCc3c(-c4cnc(N)nc4)nc(N4CCOCC4)nc32)CCNC1.Cl [Example 256] = rule not met
6. C[C@H]1COCCN1c1nc(-c2cnc(N)nc2)c2c(n1)N(C1(C)CN(C(=O)C3(C)CC3)C1)CC2 [Example 459] = rule met
7. CN(C)C(=O)CN1CC[C@](C)(N2CCc3c(-c4cnc(N)nc4)nc(N4CCOCC4)nc32)C1 [Example 403] = rule met
8. C[C@]1(N2CCc3c(-c4cnc(N)nc4)nc(N4CCOCC4)nc32)CCN(C(=O)N2CC(O)C2)C1 [Example 366] = rule met
9. CC(C)S(=O)(=O)N1CC(N2CCc3c(-c4cnc(N)nc4)nc(N4CCOC[C@@H]4C)nc32)C1 [Example 1] = rule met
10. C[C@H]1COCCN1c1nc(-c2cnc(N)nc2)c2c(n1)N([C@@]1(C)CCN(C)C1)CC2 [Example 513] = rule not met
11. C[C@H]1COCCN1c1nc(-c2cnc(N)nc2)c2c(n1)N([C@@]1(C)CCN(C(=O)C(C)(N)CO)C1)CC2.Cl (some centres unmarked) [Example 487] = rule met
12. CC(C)(O)CN1CC[C@@](C)(N2CCc3c(-c4cnc(N)nc4)nc(N4CCOCC4)nc32)C1 [Example 276] = rule met
13. C[C@]1(N2CCc3c(-c4cnc(N)nc4)nc(N4CCOCC4)nc32)CCN(C(=O)C2CCN2)C1.Cl (some centres unmarked) [Example 348] = rule met
14. C[C@H]1COCCN1c1nc(-c2cnc(N)nc2)c2c(n1)N([C@H]1[C@@H]3CNC[C@@H]31)CC2.Cl [Example 522] = rule not met
15. C[C@H]1COCCN1c1nc(-c2cnc(N)nc2)c2c(n1)N([C@@]1(C)CCN(S(C)(=O)=O)C1)CC2 [Example 175] = rule met
16. CNC(=O)N1CC(C)(N2CCc3c(-c4cnc(N)nc4)nc(N4CCOCC4)nc32)C1 [Example 250] = rule met
17. CC(C)(C)OC(=O)N1CCC1C(=O)N1CC[C@](C)(N2CCc3c(-c4cnc(N)nc4)nc(N4CCOCC4)nc32)C1 (some centres unmarked) [Example 358] = rule met
18. C[C@@H](N)C(=O)N1CC[C@](C)(N2CCc3c(-c4cnc(N)nc4)nc(N4CCOC[C@@H]4C)nc32)C1.Cl [Example 476] = rule met
19. C[C@]1(N2CCc3c(-c4cnc(N)nc4)nc(N4CCOCC4)nc32)CCN(C(=O)[C@@H]2CCOC2)C1 [Example 374] = rule met
20. C[C@H]1COCCN1c1nc(-c2cnc(N)nc2)c2c(n1)N(C1(C)CN(C(=O)C(C)(C)O)C1)CC2 [Example 455] = rule met
21. Nc1ncc(-c2nc(N3CCOCC3)nc3c2CCN3C2CN(S(=O)(=O)C3CCC3)C2)cn1 [Example 251] = rule not met
22. CC(=O)N1CC(C)(N2CCc3c(-c4cnc(N)nc4)nc(N4CCOCC4)nc32)C1 [Example 240] = rule met
23. CNC(=O)N1CC[C@@](C)(N2CCc3c(-c4cnc(N)nc4)nc(N4CCOC[C@@H]4C)nc32)C1 [Example 505] = rule met
24. Cl.Nc1ncc(-c2nc(N3CCOCC3)nc3c2CCN3[C@@H]2CNC[C@@H]2F)cn1 [Example 254] = rule not met
25. CCS(=O)(=O)N1CC(C)(N2CCc3c(-c4cnc(N)nc4)nc(N4CCOC[C@@H]4C)nc32)C1 [Example 203] = rule met
26. CN1CC(C(=O)N2CC[C@](C)(N3CCc4c(-c5cnc(N)nc5)nc(N5CCOCC5)nc43)C2)C1 [Example 356] = rule met
27. C[C@]1(N2CCc3c(-c4cnc(N)nc4)nc(N4CCOCC4)nc32)CCN(C(=O)[C@@H]2CCN2)C1.Cl [Example 347] = rule met
28. CNS(=O)(=O)N1CC(C)(N2CCc3c(-c4cnc(N)nc4)nc(N4CCOCC4)nc32)C1 [Example 190] = rule met
29. C[C@]1(N2CCc3c(-c4cnc(N)nc4)nc(N4CCOCC4)nc32)CCN(C(=O)C2(F)CNC2)C1.Cl [Example 352] = rule met

* * *

Molecular target: full-length PI3Kα (full-length p110α/p85α) (Homo sapiens (Human), UniProt P42336)
Sequence (P42336 whole entry): as the sequence (P42336 whole entry, the tested form may be a part) above
Sequence (P27986 whole entry partner): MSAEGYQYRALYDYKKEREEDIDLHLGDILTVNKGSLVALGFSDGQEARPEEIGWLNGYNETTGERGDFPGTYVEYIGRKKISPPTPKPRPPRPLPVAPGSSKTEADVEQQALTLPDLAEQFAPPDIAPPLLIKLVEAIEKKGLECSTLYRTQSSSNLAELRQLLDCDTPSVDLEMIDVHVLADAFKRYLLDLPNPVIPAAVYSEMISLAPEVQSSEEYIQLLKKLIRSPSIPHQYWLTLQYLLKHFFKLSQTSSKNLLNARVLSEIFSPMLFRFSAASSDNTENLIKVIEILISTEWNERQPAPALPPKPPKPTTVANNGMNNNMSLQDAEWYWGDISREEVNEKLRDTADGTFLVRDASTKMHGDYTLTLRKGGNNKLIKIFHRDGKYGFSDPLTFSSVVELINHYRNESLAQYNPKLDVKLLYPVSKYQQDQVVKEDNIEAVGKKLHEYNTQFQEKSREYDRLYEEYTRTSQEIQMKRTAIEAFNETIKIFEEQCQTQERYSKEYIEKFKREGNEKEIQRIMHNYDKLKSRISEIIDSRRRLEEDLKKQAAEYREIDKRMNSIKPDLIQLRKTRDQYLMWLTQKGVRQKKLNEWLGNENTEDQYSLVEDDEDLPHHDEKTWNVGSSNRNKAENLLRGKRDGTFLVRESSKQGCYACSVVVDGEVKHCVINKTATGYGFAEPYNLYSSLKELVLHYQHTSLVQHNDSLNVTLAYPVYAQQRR
Experiment: PI3KA_FL fluorescence polarization kinase assay (Ki)
Assay type: biochemical
Settings: 41 μM ATP
Text: Enzyme Production for Biochemical Assays: 1) PI3Kα Complex (Full Length p110α and p85α)(“PI3KA_FL”) Genes encoding for full length p110α and p85α subunits of PI3Kα complex were subcloned from existing constructs into pFASTBAC Dual vector (Life Technologies, Carlsbad, Calif.) using standard cloning procedures. […] Additionally, sequence encoding for histidine tag and Tobacco Etch Virus (“TEV”) cleavage site preceded p110α ORF (Open Reading Frame). […]
Lab note: compare PI3KA_FL Ki against 1 nM. Equal or greater, write condition met. Smaller, write condition not met.

1) Nc1ncc(-c2nc(N3CCOCC3)nc3c2CCN3C2CCCOC2)cn1 (racemic) = condition met
2) C[C@H](O)C(=O)N1CC[C@H](N2CCc3c(-c4cnc(N)nc4)nc(N4CCOCC4)nc32)C1 = condition met
3) Nc1ncc(-c2nc(N3CCOCC3)nc3c2CCN3[C@H]2CCC(F)(F)C2)cn1 (single isomer, unassigned) = condition not met
4) CNS(=O)(=O)N(C)[C@H]1C[C@H](N2CCc3c(-c4cnc(N)nc4)nc(N4CCOCC4)nc32)C1 = condition not met
5) Nc1ncc(-c2nc(N3CCOCC3)nc3c2CCN3[C@H]2CCN(S(N)(=O)=O)C2)cn1 = condition not met
6) CNS(=O)(=O)N1CC[C@@H](N2CCc3c(-c4cnc(N)nc4)nc(N4CCOC[C@@H]4C)nc32)C1 [Example 85] = condition not met
7) CC(C)S(=O)(=O)N1CC(N2CCc3c(-c4cnc(N)nc4)nc(N4CCOCC4)nc32)C1 = condition not met
8) Nc1ncc(-c2nc(N3CCOCC3)nc3c2CCN3[C@H]2CCN(C=O)C2)cn1 = condition met

* * *

Each item that follows carries a reported PI3KA_Act Ki.
target: truncated PI3Kα (p110α/iSH2 p85α) (Homo sapiens (Human), UniProt P42336); assay: PI3KA_Act fluorescence polarization kinase assay (Ki); type: biochemical; settings: 1 mM ATP
measurement-label: PI3KA_Act Ki (nM)

1) C[C@H]1COCCN1c1nc(-c2cnc(N)nc2)c2c(n1)N([C@H]1[C@@H]3CN(C(=O)OC(C)(C)C)C[C@@H]31)CC2 = 0.170
2) CC(C)(CN)C(=O)N1CC[C@](C)(N2CCc3c(-c4cnc(N)nc4)nc(N4CCOCC4)nc32)C1.Cl = 0.036
3) Nc1ncc(-c2nc(N3CCOCC3)nc3c2CCN3C2CN(S(=O)(=O)C3CC3)C2)cn1 = 0.118
4) C[C@H]1COCCN1c1nc(-c2cnc(N)nc2)c2c(n1)N(C1(C)CNC1)CC2.Cl = 0.167
5) CC1(C(=O)N2CC(N3CCc4c(-c5cnc(N)nc5)nc(N5CCOCC5)nc43)C2)CC1 = 4.212
6) C[C@@H](O)C(=O)N1CC[C@@](C)(N2CCc3c(-c4cnc(N)nc4)nc(N4CCOCC4)nc32)C1 = 0.222
7) CNC(=O)CN1CC[C@](C)(N2CCc3c(-c4cnc(N)nc4)nc(N4CCOCC4)nc32)C1 = 0.109
8) C[C@]1(N2CCc3c(-c4cnc(N)nc4)nc(N4CCOCC4)nc32)CCN(C(=O)[C@@](C)(N)C(F)(F)F)C1.Cl = 0.054
9) CC(C)S(=O)(=O)N1CC(N2CCc3c(-c4cnc(N)nc4)nc(N4CCOC[C@H]4C)nc32)C1 = 2.296
10) CC(C)(N)C(=O)N1CC[C@H](N2CCc3c(-c4cnc(N)nc4)nc(N4CCOCC4)nc32)C1.Cl = 0.208
